Provenance of the data: patent EP0146338A2

# measurement.notes: Toxicity (LD50), mouse
# measurement.context: in vivo, po
quantity: LD50
Mention the unit after the number when you answer.

Ask: // lookup LD50 for CC1=CC(=O)c2ccccc2C1=O [Vitamin K3, 2-methyl-l,4-naphthoqunone]
Result: 500 mg/kg

---

# Tested on: human ACD (acid chitorate dextrose) preserved blood
# measurement.notes: 2,3-DPG level after addition of naphthoquinone to preserved blood (Keitt's method)
# Format: cell-based
# measurement.context: One hundred PM naphthoquinone in 1 ml human ACD preserved blood, 60 min at 37°C; control 294
quantity: Blood level of 2,3-DPG (n moles/ml RBC)
Just the number please, in n moles/ml RBC, no unit attached.

Recorded Blood level of 2,3-DPG, per entry:
O=C1C=C(S(=O)(=O)O)c2ccccc2C1=O | 3923
CC1=CC(=O)c2ccccc2C1=O | 3660
O=C1C(Cl)=C(Cl)C(=O)c2ccccc21 | 3971

Let us examine a further case.
Ask: Suppose we examine the molecule `O=C1C=CC(=O)c2ccccc21` ; what Blood level of 2,3-DPG value has been reported?
Result: 3554

---

# measurement.notes: Toxicity (LD50), rat
# measurement.context: in vivo, po
quantity: LD50 (mg/kg)
Numbers only; they are read as mg/kg.

Ask: Give the measured LD50 of `O=C1C=CC(=O)c2ccccc21` .
Result: 190

---

# measurement.notes: Toxicity (LD50), mouse
# measurement.context: in vivo, ip
quantity: LD50 (mg/kg)
Answer in mg/kg, number only, no unit symbol.

Ask: Form field: reported LD50 of O=C1C=C(S(=O)(=O)O)c2ccccc2C1=O [1,2-Naphthoquinone-4-sulfonic acid, 1,2-naphthoquinone-4-sulfonic acid]
Result: 625
